- MEASURED TARGET: HCV NS3 helicase NS3h_1b(con1) (Hepatitis C virus genotype 1b, UniProt Q9WMX2)
- Construct: truncated C-terminally His-tagged NS3 proteins lacking the N-terminal protease, called NS3h; His-tag (C); made in house
- Sequence (Q9WMX2 1192-1657): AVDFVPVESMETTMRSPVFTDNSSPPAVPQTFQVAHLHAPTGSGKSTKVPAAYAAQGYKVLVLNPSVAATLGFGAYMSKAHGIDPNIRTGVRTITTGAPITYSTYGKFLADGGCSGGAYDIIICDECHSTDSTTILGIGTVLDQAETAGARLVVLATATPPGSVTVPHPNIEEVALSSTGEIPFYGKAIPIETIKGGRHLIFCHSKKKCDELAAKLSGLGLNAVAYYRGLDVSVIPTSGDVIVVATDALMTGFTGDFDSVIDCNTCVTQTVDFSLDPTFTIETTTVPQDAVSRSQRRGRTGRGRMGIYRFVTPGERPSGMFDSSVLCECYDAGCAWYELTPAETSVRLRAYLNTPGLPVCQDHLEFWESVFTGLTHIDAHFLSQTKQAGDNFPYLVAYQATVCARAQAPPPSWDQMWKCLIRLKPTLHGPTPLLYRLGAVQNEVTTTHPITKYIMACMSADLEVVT
- ASSAY INFO: MBHA screen of NCI mechanistic set library at 20 μM (percent inhibition, compound interference)
- Type: biochemical
- SETUP CONDITIONS: compounds at 20 μM, MBHA with DNA substrate; calculated from Equation 1
Respond with 1 for Inh. (%) (Inhibition) values of 20% and above, 0 for values below.

Use these answered entries as a reference point.
INSERT INTO assay_data (compound, class_label) VALUES
  ('C=C1C(=O)O[C@@H]2/C=C(/C)C(=O)C[C@H]3OC(C)(C)O[C@]3(C)C[C@@H](OC(=O)/C(C)=C\C)[C@@H]12', 1),
  ('Oc1[nH]c2ccccc2c1N=Nc1c(F)c(F)c(F)c(F)c1F', 0),
  ('Nc1nc(SCc2ccccc2Cl)c2[nH]cnc2n1', 0),
  ('N#CCCN(CCC#N)c1ccc(C=Nc2ccc(F)cc2)cc1', 0),
  ('COc1ccccc1[S+]([O-])Nc1ccccc1 (centres unmarked)', 0),
  ('CC(C)c1ccc2nc3ccc(C(=O)NCCN(C)C)cn3c(=O)c2c1', 1);

Let us examine a further case.
# input Item O=C([O][Hg][CH2]C1COC([CH2][Hg][O]C(=O)c2ccccc2)CO1)c1ccccc1 (centres unmarked) with Inh. (%) (Inhibition) of 20% or above?
# output 0
